# assay comment: killing of E-cadherin-knockdown HMLE cells – cell-based, CellTiter-Glo luminescence, primary HTS retest, dry powder, set 5, dose response (AID 504535)
# run parameters: HMLE_shECad viability, CellTiter-Glo luminescence, 72 h; at 19.5 µM (top of the series)
Inconclusive results are not listed.
Each entry below carries its recorded activity change, negative = inhibition.
Give the number; % is assumed, so skip it.

Record excerpt, results attached:
chem_smiles=CC(C)NC(=O)c1ccc(COc2ccccc2)o1 measured=-14.2
chem_smiles=O=C(Nc1nncs1)c1ccc(COc2ccccc2)o1 measured=-7.89
chem_smiles=C/C(=C\C(=O)NC1=NCCS1)c1ccc(C)cc1 measured=-1.94
chem_smiles=C/C(=C\C(=O)NC1=NCCS1)c1ccc(CC(C)C)cc1 measured=3.46

**Q:** # get_value(readout='activity change, negative = inhibition', item= Cc1csc(NC(=O)c2ccc(COc3cccc(S(C)(=O)=O)c3)o2)n1 )
**A:** -13.6

**Q:** # get_value(readout='activity change, negative = inhibition', item= Cn1c(C(=O)NC2=NCCS2)cc2ccccc21 )
**A:** -9.82

**Q:** # get_value(readout='activity change, negative = inhibition', item= CCN(CC)C(=O)c1ccc(COc2ccccc2)o1 )
**A:** 8.61
